target: hPXR (Homo sapiens (Human)); experiment: hPXR transactivation assays (agonistic and antagonistic), HepG2 cells with CYP3A4-luciferase reporter; details: read-out: IC50 (antag); antagonistic assay, combined with 5 μM rifampicin, 24 h; NA = not active
This listing pairs compounds with measured IC50.
Report the figure in nM without appending any unit label.

Please give the measured IC50 for this compound: "COc1ccc(O)c(-n2nnc(S(=O)(=O)c3ccc(C(C)(C)C)cc3)c2C)c1"
180

Please give the measured IC50 for this compound: "Cc1c(S(=O)(=O)c2ccc(C(C)(C)C)cc2)nnn1-c1cc(O)ccc1O"
3900

Please give the measured IC50 for this compound: "COc1ccc(Cl)cc1-n1nnc(S(=O)(=O)c2ccc(C(C)C)cc2)c1C"
520

Please give the measured IC50 for this compound: "COc1ccc(OC)c(-n2nnc(S(=O)(=O)c3ccc(C(C)C)cc3)c2C)c1"
630

Please give the measured IC50 for this compound: "COc1ccc(C)cc1-n1nnc(S(=O)(=O)c2ccc(C(C)C)cc2)c1C"
660

====

target: human peroxisome proliferator-activated receptor gamma (PPARγ) (Homo sapiens); test: human peroxisome proliferator-activated receptor gamma (PPARγ) transactivation assay; type: cell-based; conditions: Anta = compound exhibited antagonism; read-out: PPARγ (Anta)
Sequence (P37231 whole entry, looked up): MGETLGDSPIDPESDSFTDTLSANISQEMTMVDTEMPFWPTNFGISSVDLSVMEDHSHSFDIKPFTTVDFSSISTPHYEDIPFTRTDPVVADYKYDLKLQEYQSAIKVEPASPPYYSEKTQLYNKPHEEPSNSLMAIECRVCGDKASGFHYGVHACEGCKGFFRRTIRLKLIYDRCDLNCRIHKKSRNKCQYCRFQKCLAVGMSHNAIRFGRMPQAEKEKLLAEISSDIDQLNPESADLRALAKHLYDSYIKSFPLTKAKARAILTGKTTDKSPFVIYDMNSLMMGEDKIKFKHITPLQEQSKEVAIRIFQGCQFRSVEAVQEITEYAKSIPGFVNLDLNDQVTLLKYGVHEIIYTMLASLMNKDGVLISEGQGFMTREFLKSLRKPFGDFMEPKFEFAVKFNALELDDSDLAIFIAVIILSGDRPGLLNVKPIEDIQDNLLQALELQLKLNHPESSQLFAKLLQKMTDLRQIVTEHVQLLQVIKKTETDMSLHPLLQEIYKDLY
endpoint-label: pIC50
Scale: pIC50 equals -log10([C]), with [C] in mol/L.

The following compounds have reported results that may help.
Return pIC50 measured with human peroxisome proliferator-activated receptor gamma (PPARγ) (Homo sapiens) given this compound: "COc1ccc(O)c(-n2nnc(S(=O)(=O)c3ccc(C(C)(C)C)cc3)c2C)c1"
4.93

Return pIC50 measured with human peroxisome proliferator-activated receptor gamma (PPARγ) (Homo sapiens) given this compound: "Cc1c(S(=O)(=O)c2ccc(C(C)(C)C)cc2)nnn1-c1cc(O)ccc1O"
4.89

Return pIC50 measured with human peroxisome proliferator-activated receptor gamma (PPARγ) (Homo sapiens) given this compound: "COc1ccc(OC)c(-n2nnc(S(=O)(=O)c3ccc(C(C)(C)C)cc3)c2Br)c1"
4.89

Return pIC50 measured with human peroxisome proliferator-activated receptor gamma (PPARγ) (Homo sapiens) given this compound: "COc1ccc(OC)c(-c2ncc(S(=O)(=O)c3ccc(C(C)(C)C)cc3)n2C)c1"
4.55

Return pIC50 measured with human peroxisome proliferator-activated receptor gamma (PPARγ) (Homo sapiens) given this compound: "COc1ccc(OC)c(-n2nnc(S(=O)(=O)c3ccc(C(C)(C)C)cc3)c2CCl)c1"
5.82

Continuing:
Return pIC50 measured with human peroxisome proliferator-activated receptor gamma (PPARγ) (Homo sapiens) given this compound: "COc1cc(Cl)c(Cl)cc1-n1nnc(S(=O)(=O)c2ccc(C(C)(C)C)cc2)c1C"
4.84

Return pIC50 measured with human peroxisome proliferator-activated receptor gamma (PPARγ) (Homo sapiens) given this compound: "COc1ccc(Cl)cc1-n1nnc(S(=O)(=O)c2ccc(C(C)(C)C)cc2)c1Br"
4.98

====

Entries with their measured EC50, system hPXR (Homo sapiens (Human), UniProt O75469):
Note: state the figure and append the unit.

The following compounds have reported results that may help.
Return EC50 measured with hPXR (Homo sapiens (Human), UniProt O75469) given this compound: COc1ccc(Cl)cc1-c1ncc(C(=O)c2ccc(C(C)(C)C)cc2)n1C [LC-81]
Sequence (O75469 whole entry): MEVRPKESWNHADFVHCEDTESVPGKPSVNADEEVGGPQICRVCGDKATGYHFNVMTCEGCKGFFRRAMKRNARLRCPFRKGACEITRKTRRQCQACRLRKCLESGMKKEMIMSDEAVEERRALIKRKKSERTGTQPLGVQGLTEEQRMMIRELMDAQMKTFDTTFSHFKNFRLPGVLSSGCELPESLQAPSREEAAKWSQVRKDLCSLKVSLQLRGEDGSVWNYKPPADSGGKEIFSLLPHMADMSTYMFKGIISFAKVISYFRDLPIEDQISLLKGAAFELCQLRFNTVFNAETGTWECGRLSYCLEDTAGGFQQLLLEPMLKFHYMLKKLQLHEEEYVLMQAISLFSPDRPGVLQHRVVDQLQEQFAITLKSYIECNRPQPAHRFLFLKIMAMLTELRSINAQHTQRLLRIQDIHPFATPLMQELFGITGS
1200 nM

Return EC50 measured with hPXR (Homo sapiens (Human), UniProt O75469) given this compound: COc1cc(-n2nnc(S(=O)(=O)c3ccc(C(C)(C)C)cc3)c2C)c(OC)cc1C(C)=O [LC-16]
1200 nM

Let's switch to this compound now.
Return EC50 measured with hPXR (Homo sapiens (Human), UniProt O75469) given this compound: COc1ccc(OC)c(-n2nnc(Nc3ccc(C(C)(C)C)cc3)c2C)c1 [LC-43]
1500 nM

Every entry's value here was drawn from patent US10550091B2.
